These entries and their values trace back to patent US20220195015A1.

# maps each entry to its EC50
- Tested On: SARS-CoV-2 spike receptor binding domain (RBD), wild type (SARS-CoV-2, UniProt P0DTC2 319-539)
- Protocol: ELISA, RBD protein coated, mAb titrated
Only the number, expressed in ng/mL, is required.

Worked examples follow.
C566 (antibody, V domains shown) VH: QVQLQESGPGLVKSSQTLSLNCSVFGASISSGGYYWTWIRQHPGKGLEWIGYIHYRGTYYNPSLKSRVTMSVDTSKNQFSLKVRSVSAADTAIYYCARAIVVVTLNWFDLWGQGTLVTVSS VL: NFMLTQPHSVSESPGKTVTISCSGSGGSIASNYVQWYQQRPGSAPTAVIYEDNQRPSGVPDRFSGSIDSSSNSASLTISGLKTEDEADYYCQSYDTSNPVIFGGGTKLTV = 5.88
C565 (antibody, V domains shown) VH: EVQLVESGGGLIQPGGSLRLSCAASGLIVSSNYMNWVRQAPGKGLEWVSLLYSGGSTYYADSVKGRFTISRDNSKNTLYLQMNSLRPEDTAVYYCARDLSVVGAFDIWGQGTMVTVSS VL: EIVLTQSPGTLSLSPGERATLSCRASQSLPSTYLAWYQQKRGQAPRLLIYGASSRATGIPDRFSGSGSGTDFTLTISRLEPEDFAVYYCQQYGTSPRVTFGPGTKVDIK = 1.27
C592 (antibody, V domains shown) VH: QVQLVQSGAEVKKPGASVKVSCKASGYTFTDYFNHWVRQAPGQGLEWMGWINPNSGGTNSAQKFQGRVTMTRDTSITTVYMELSRLRSDDTAVYYCARYKGTTVNTNYYYGMDVWGQGTTVTVSS VL: SYELTQPPSVSVSPGQTASITCSGDKLRNKYACWYQQKAGQSPMLVIYQDTKRPSGIPERFSGSNSGNTATLTISGTQAMDEADYYCQAWDISTVVFGGGTKLTVL = 6
C528 (antibody, V domains shown) VH: EVQLVESGGGLVQPGGSLRLSCAASGFTFRNYDMHWVRQVAGKGLEWVSAIGTSGDTYYPDSVKGRFTISRENAKNSVYLQMNNLRAGDTAVYFCVRDREISGWTGWYFDLWGRGTLVTVSS VL: DIQMTQSPSSLSASVGDRVTITCRASQTIHNYLNWYQQIPGKAPRLLIYATNTLQSGVPSRFSGSGSGTDFTLTITGLQPEDFATYYCQQSYSTPPITFGQGTRLEIK = 5.66

Q) Entry under review: C568 (antibody, V domains shown) VH: QVQLVQSGAEVKKPGASVKVSCTASGYTFSSYYIHWVRQAPGQGLEWMGIINPGAGSTSYAQKFQGRVAMTTDTSTRTVYMELSSLRSDDTAVYYCARDEAFLPSAIFVGDYWGQGTLVTVSS VL: DIQMTQSPSSLSASVGDRVTITCRASQGIRNDLGWYQQKPGKAPKRLIYAASNLQSGVPSRFSGSGSGTEFTLTISSLQPEDFATYYCLQHSTYPHTWTFGQGTKVEIK . Reported EC50?
A) 5.99
